molecular target: PI3K γ (Homo sapiens (Human), UniProt P48736); test: PI3-Kinase Promega ADP-Glo Max assay; format: biochemical
Sequence (P48736 whole entry): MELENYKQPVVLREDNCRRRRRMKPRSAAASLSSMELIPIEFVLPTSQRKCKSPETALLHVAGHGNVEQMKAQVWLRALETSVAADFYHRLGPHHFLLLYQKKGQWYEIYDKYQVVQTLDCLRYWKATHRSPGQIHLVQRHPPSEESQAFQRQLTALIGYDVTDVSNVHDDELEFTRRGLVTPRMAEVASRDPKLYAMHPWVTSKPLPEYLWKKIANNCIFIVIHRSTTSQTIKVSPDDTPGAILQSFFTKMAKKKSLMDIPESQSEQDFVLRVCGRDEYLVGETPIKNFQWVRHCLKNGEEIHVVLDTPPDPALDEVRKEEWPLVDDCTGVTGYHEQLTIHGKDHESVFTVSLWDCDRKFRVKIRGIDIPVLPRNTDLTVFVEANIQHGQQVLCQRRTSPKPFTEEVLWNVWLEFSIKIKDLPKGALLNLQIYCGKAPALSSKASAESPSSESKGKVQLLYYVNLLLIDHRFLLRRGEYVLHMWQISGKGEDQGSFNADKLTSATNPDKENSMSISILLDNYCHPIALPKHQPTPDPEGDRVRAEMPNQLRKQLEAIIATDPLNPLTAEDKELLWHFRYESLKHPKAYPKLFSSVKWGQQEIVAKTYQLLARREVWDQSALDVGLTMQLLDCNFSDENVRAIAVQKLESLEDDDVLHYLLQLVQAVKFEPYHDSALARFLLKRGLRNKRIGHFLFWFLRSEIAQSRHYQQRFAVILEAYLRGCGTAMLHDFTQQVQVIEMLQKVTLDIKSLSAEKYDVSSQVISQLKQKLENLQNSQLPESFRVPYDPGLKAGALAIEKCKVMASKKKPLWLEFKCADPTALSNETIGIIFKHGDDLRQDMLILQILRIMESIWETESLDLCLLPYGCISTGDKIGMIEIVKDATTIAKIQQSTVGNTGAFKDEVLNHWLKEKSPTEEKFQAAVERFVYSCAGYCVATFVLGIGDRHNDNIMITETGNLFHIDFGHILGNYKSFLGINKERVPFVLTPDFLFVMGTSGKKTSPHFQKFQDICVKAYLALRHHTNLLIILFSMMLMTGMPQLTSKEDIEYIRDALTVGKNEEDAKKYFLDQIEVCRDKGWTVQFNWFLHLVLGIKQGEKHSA
MEASUREMENT_NAME: PI3K δ/PI3K γ IC50 (selectivity)

C[C@H](NC(=O)c1c(N)nn2cccnc12)c1cc2cccc(C#Cc3cncn3C)c2c(=O)n1C1CC1 W (W = >1 to <10)
C[C@H](NC(=O)c1c(N)nn2cccnc12)c1cc2cccc(C#CCN(C)C)c2c(=O)n1-c1ccccc1 W (W = >1 to <10)
Cc1ncccc1C#Cc1cccc2cc([C@H](C)NC(=O)c3c(N)nn4cccnc34)n(-c3ccccc3)c(=O)c12 W (W = >1 to <10)

###

target: PI3K-δ in RAJI cells (Homo sapiens (Human)); assay: RAJI p110 δ assay (PI3K-δ selective cellular assay, phospho-AKT); type: cell-based; conditions: phospho-AKT; read-out: RAJI p110 δ assay IC50
Sequence (O00329 whole entry): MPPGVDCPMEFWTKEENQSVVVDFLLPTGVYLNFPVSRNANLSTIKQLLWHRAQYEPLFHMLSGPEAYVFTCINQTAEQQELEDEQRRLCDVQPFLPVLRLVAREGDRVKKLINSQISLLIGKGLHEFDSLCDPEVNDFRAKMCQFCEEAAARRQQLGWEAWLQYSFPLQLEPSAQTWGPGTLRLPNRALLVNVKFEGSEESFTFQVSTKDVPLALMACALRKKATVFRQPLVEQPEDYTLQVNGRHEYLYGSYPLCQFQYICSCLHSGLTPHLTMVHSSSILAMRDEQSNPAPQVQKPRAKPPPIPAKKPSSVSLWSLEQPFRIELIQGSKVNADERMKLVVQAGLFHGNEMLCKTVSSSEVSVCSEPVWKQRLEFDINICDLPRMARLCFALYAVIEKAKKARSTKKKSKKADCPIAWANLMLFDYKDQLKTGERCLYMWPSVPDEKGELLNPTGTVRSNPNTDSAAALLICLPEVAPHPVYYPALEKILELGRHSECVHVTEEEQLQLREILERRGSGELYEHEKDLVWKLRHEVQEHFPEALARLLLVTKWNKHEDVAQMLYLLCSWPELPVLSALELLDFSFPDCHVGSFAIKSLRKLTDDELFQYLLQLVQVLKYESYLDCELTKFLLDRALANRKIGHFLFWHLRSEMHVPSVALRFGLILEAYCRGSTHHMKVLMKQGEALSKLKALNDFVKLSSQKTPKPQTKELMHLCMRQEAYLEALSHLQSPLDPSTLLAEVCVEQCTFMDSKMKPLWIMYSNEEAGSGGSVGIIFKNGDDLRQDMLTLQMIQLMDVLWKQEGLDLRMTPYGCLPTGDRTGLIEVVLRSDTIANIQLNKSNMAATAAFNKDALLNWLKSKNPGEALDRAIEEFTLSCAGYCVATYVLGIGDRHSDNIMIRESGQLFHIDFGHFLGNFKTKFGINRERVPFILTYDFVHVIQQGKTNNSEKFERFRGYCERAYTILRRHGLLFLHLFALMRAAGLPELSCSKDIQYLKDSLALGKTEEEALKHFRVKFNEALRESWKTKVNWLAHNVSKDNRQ
Sequence (P27986 whole entry partner): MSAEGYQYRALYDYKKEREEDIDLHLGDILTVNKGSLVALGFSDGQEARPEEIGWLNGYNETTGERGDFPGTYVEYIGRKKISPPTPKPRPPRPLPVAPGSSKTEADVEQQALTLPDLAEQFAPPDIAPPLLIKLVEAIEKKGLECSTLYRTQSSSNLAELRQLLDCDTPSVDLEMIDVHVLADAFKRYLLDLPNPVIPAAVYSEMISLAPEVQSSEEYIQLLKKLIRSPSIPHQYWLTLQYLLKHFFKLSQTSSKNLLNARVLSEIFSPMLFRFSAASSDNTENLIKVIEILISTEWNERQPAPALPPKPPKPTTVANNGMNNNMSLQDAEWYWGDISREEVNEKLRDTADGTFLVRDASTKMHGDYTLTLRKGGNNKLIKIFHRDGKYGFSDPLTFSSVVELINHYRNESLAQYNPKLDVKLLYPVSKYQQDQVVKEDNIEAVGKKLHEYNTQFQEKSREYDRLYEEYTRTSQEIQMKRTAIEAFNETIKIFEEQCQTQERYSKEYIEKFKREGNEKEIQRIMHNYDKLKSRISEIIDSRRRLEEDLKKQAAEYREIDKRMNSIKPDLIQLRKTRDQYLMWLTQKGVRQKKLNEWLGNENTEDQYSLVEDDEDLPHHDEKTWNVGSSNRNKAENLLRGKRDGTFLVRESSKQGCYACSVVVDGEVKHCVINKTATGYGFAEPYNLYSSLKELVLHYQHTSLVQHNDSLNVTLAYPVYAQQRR

MOLECULE	TARGET_SYSTEM	IC50
C[C@H](O)C#Cc1cccc2cc([C@H](C)NC(=O)c3c(N)nn4cccnc34)n(-c3ccccc3)c(=O)c12	PI3K-δ in RAJI cells (Homo sapiens (Human))	100 to 500 nM
Cc1nn(C)cc1C#Cc1cccc2cc([C@H](C)NC(=O)c3c(N)nn4cccnc34)n(-c3ccccc3)c(=O)c12	PI3K-δ in RAJI cells (Homo sapiens (Human))	500 to 1000 nM
Cc1ncccc1C#Cc1cccc2cc([C@H](C)NC(=O)c3c(N)nn4cccnc34)n(-c3ccccc3)c(=O)c12	PI3K-δ in RAJI cells (Homo sapiens (Human))	1000 to 10000 nM
C[C@H](NC(=O)c1c(N)nn2cccnc12)c1cc2cccc(C#CC3CCOCC3)c2c(=O)n1-c1ccccc1	PI3K-δ in RAJI cells (Homo sapiens (Human))	1 to 100 nM
C#Cc1cccc2nc([C@H](C)NC(=O)c3c(N)nn4cccnc34)n(-c3ccccc3)c(=O)c12	PI3K-δ in RAJI cells (Homo sapiens (Human))	1 to 100 nM
C[C@H](NC(=O)c1c(N)nn2cccnc12)c1cc2cccc(C#CC(C)(C)N)c2c(=O)n1-c1ccccc1	PI3K-δ in RAJI cells (Homo sapiens (Human))	1000 to 10000 nM
C#Cc1cccc2nc([C@H](C)NC(=O)c3c(N)nn4cccnc34)n(-c3ccc(F)cc3)c(=O)c12	PI3K-δ in RAJI cells (Homo sapiens (Human))	1 to 100 nM
C[C@H](NC(=O)c1c(N)nn2cccnc12)c1cc2cccc(C#CC3CC3)c2c(=O)n1-c1ccccc1	PI3K-δ in RAJI cells (Homo sapiens (Human))	100 to 500 nM
C[C@H](NC(=O)c1c(N)nn2cccnc12)c1nc2cccc(C#Cc3cnn(C)c3)c2c(=O)n1C	PI3K-δ in RAJI cells (Homo sapiens (Human))	500 to 1000 nM
C[C@H](NC(=O)c1c(N)nn2cccnc12)c1cc2cccc(C#Cc3ccnn3C)c2c(=O)n1-c1ccccc1	PI3K-δ in RAJI cells (Homo sapiens (Human))	500 to 1000 nM
Cc1csc(C#Cc2cccc3cc([C@H](C)NC(=O)c4c(N)nn5cccnc45)n(-c4ccccc4)c(=O)c23)n1	PI3K-δ in RAJI cells (Homo sapiens (Human))	100 to 500 nM
C[C@H](NC(=O)c1c(N)nn2cccnc12)c1cc2cccc(C#Cc3cnc[nH]3)c2c(=O)n1-c1ccccc1	PI3K-δ in RAJI cells (Homo sapiens (Human))	100 to 500 nM
C[C@H](NC(=O)c1c(N)nn2cccnc12)c1cc2cccc(C#CC3CNC3)c2c(=O)n1-c1ccccc1	PI3K-δ in RAJI cells (Homo sapiens (Human))	1000 to 10000 nM
Cc1nc(C)c(C#Cc2cccc3cc([C@H](C)NC(=O)c4c(N)nn5cccnc45)n(-c4ccccc4)c(=O)c23)s1	PI3K-δ in RAJI cells (Homo sapiens (Human))	1000 to 10000 nM
C[C@H](NC(=O)c1c(N)nn2cccnc12)c1cc2cccc(C#Cc3ccccn3)c2c(=O)n1-c1ccccc1	PI3K-δ in RAJI cells (Homo sapiens (Human))	500 to 1000 nM
CC#Cc1cccc2cc(C(C)NC(=O)c3c(N)nn4cccnc34)c(-c3ccccc3)nc12 (stereo not shown)	PI3K-δ in RAJI cells (Homo sapiens (Human))	1 to 100 nM
C[C@H](NC(=O)c1nccnc1N)c1cc2cccc(C#Cc3cnn(C)c3)c2c(=O)n1-c1ccccc1	PI3K-δ in RAJI cells (Homo sapiens (Human))	1 to 100 nM
COc1cc(C#Cc2cccc3cc([C@H](C)NC(=O)c4c(N)nn5cccnc45)n(-c4ccccc4)c(=O)c23)ccn1	PI3K-δ in RAJI cells (Homo sapiens (Human))	100 to 500 nM
C[C@H](NC(=O)c1c(N)nn2cccnc12)c1cc2cccc(C#CC(C)(C)C)c2c(=O)n1-c1ccccc1	PI3K-δ in RAJI cells (Homo sapiens (Human))	1000 to 10000 nM

###

IC50 values for the compounds below.
biological target: PI3K-δ in RAJI cells (Homo sapiens (Human)); assay: RAJI p110 δ assay (PI3K-δ selective cellular assay, phospho-AKT); format: cell-based; details: phospho-AKT; read-out: RAJI p110 δ assay IC50
MEASUREMENT_NAME: IC50

C[C@H](NC(=O)c1c(N)nn2cccnc12)c1cc2cccc(C#CCN(C)C)c2c(=O)n1-c1ccccc1 0.1 to 0.5 µM
C#Cc1cccc2nc([C@H](C)NC(=O)c3c(N)nn4cccnc34)n(-c3ccc(F)c(F)c3)c(=O)c12 0.1 to 0.5 µM
Cc1nc(C#Cc2cccc3cc([C@H](C)NC(=O)c4c(N)nn5cccnc45)n(-c4ccccc4)c(=O)c23)cs1 0.1 to 0.5 µM
C[C@H](NC(=O)c1c(N)nn2cccnc12)c1cc2cccc(C#CC(F)(F)F)c2c(=O)n1-c1ccccc1 0.5 to 1 µM
C[C@H](NC(=O)c1cnn2cccnc12)c1cc2cccc(C#Cc3cnn(C)c3)c2c(=O)n1-c1ccccc1 1 to 10 µM
C[C@H](NC(=O)c1c(N)nn2cccnc12)c1cc2ccc3ccccc3c2c(=O)n1-c1ccccc1 1 to 10 µM
C[C@H](NC(=O)c1c(N)nn2cccnc12)c1cc2cccc(C#CC3CCN(S(C)(=O)=O)CC3)c2c(=O)n1-c1ccccc1 0.5 to 1 µM
COc1ccc(C#Cc2cccc3cc([C@H](C)NC(=O)c4c(N)nn5cccnc45)n(-c4ccccc4)c(=O)c23)cn1 0.5 to 1 µM
C[C@H](NC(=O)c1c(N)nn2cccnc12)c1cc2cccc(C#Cc3cc[nH]c(=O)c3)c2c(=O)n1-c1ccccc1 0.1 to 0.5 µM
Cc1scnc1C#Cc1cccc2cc([C@H](C)NC(=O)c3c(N)nn4cccnc34)n(-c3ccccc3)c(=O)c12 0.1 to 0.5 µM
C[C@H](NC(=O)c1c(N)nn2cccnc12)c1cc2cccc(C#Cc3ccncc3)c2c(=O)n1-c1ccccc1 0.1 to 0.5 µM
C[C@H](NC(=O)c1c(N)nn2cccnc12)c1cc2cccc(C#CC3CCNCC3)c2c(=O)n1-c1ccccc1 1 to 10 µM
COCC#Cc1cccc2cc([C@H](C)NC(=O)c3c(N)nn4cccnc34)n(-c3ccccc3)c(=O)c12 0.1 to 0.5 µM
